Biological target: T1, HLA-A*0201 (human)
T1 construct: also called HLA-A2.1; HLA A2.1
Experiment: iTopia off-rate;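 note: Half-life of peptide complexes with plate-bound HLA-A2, peptides loaded 18 h at 21 C, washed, then held at 37 C over several time points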
Threshold rule: t1/2 greater than or equal to 5 is Criterion met; below that, Criterion not met.

Solved entries:
binder="ALFKEIFSC [cdr2 424-432 ALFKEIFSC]" discrete_label="Criterion met"
binder="HLQSQVEEL [cdr2 128-136 HLQSQVEEL]" discrete_label="Criterion met"
binder="VFAEKITSL [cdr2 176-184 VFAEKITSL]" discrete_label="Criterion not met"
binder="LLEEMFLTV [cdr2 290-298 LLEEMFLTV]" discrete_label="Criterion met"
binder="LVPDSLYVP [cdr2 274-282 LVPDSLYVP]" discrete_label="Criterion not met"

Test whether the binder LYDLRQHFV [cdr2 164-172 LYDLRQHFV] records t1/2 of 5 or higher. Criterion not met

Please tell me: is the binder LASVNPEPV [cdr2 405-413 LASVNPEPV] at or over 5 in terms of t1/2? Criterion not met

Could you verify whether the entry LLHEVDTQY [cdr2 345-353 LLHEVDTQY] shows t1/2 of no less than 5? Criterion not met

Is it the case that HLKKTVTML [cdr2 197-205 HLKKTVTML] has t1/2 reaching or exceeding 5? Criterion not met

Would you say GVNAQSEPV [cdr2 391-399 GVNAQSEPV] shows t1/2 at minimum 5? Criterion met
